# assay-method-text: relative permittivity at various frequencies (dimensionless); xn = mol fraction of the nth substance listed
# experimental-setup: 298.15 K; 101.3 kPa; Liquid; Frequency=0.01 MHz; Coaxial cylinder capacitor; x1 = 0.2
Each record is given satisfied if its reported relative permittivity is strictly below 10. Records at or above 10 are given not satisfied.

[
  {
    "compound": "O=C1CCCC1 [cyclopentanone] + CCCCCCCCO",
    "classification": "satisfied"
  },
  {
    "compound": "O=C1CCCC1 [cyclopentanone] + CCCCCCCCCCO",
    "classification": "satisfied"
  },
  {
    "compound": "O=C1CCCC1 [cyclopentanone] + C1CCCCC1",
    "classification": "satisfied"
  },
  {
    "compound": "O=C1CCCC1 [cyclopentanone] + CCCCO",
    "classification": "not satisfied"
  },
  {
    "compound": "O=C1CCCC1 [cyclopentanone] + CCCCCCO",
    "classification": "not satisfied"
  },
  {
    "compound": "O=C1CCCC1 [cyclopentanone] + CCO",
    "classification": "not satisfied"
  }
]

* * *

# assay-method-text: relative permittivity at various frequencies (dimensionless)
# experimental-setup: 298.15 K; 101.3 kPa; Liquid; Frequency=0.01 MHz; Coaxial cylinder capacitor
Numbers after ± are expanded uncertainties.
The entries below come with measured relative permittivity values attached.

[
  {
    "smiles-structure": "CCCCCCCCO",
    "relative permittivity": "9.85 ± 0.55"
  },
  {
    "smiles-structure": "CCO",
    "relative permittivity": "24.37 ± 0.84"
  },
  {
    "smiles-structure": "CCCCO",
    "relative permittivity": "17.49 ± 0.71"
  },
  {
    "smiles-structure": "C1CCCCC1",
    "relative permittivity": "2.02 ± 0.29"
  },
  {
    "smiles-structure": "O=C1CCCC1",
    "relative permittivity": "13.52 ± 0.63"
  },
  {
    "smiles-structure": "CCCCCCO",
    "relative permittivity": "13.09 ± 0.62"
  },
  {
    "smiles-structure": "CCCCCCCCCCO",
    "relative permittivity": "7.74 ± 0.49"
  }
]

* * *

The entries below come with measured relative permittivity values attached.
# assay-method-text: relative permittivity at various frequencies (dimensionless); xn = mol fraction of the nth substance listed
# experimental-setup: 298.15 K; 101.3 kPa; Liquid; Frequency=0.01 MHz; Coaxial cylinder capacitor; x1 = 0.9
Numbers after ± are expanded uncertainties.
test-readout: relative permittivity

[
  {
    "compound": "O=C1CCCC1 [cyclopentanone] + CCCCCCO",
    "result": "12.83 ± 0.62"
  },
  {
    "compound": "O=C1CCCC1 [cyclopentanone] + C1CCCCC1",
    "result": "11.94 ± 0.6"
  },
  {
    "compound": "O=C1CCCC1 [cyclopentanone] + CCO",
    "result": "13.75 ± 0.64"
  },
  {
    "compound": "O=C1CCCC1 [cyclopentanone] + CCCCCCCCCCO",
    "result": "12.31 ± 0.61"
  },
  {
    "compound": "O=C1CCCC1 [cyclopentanone] + CCCCO",
    "result": "13.19 ± 0.62"
  },
  {
    "compound": "O=C1CCCC1 [cyclopentanone] + CCCCCCCCO",
    "result": "12.55 ± 0.61"
  }
]

* * *

# assay-method-text: refractive index (Na D-line) (dimensionless); xn = mol fraction of the nth substance listed
# experimental-setup: 298.15 K; 101.3 kPa; Liquid; Standard Abbe refractometry; x1 = 0.1
test-readout: refractive index

[
  {
    "molecule": "O=C1CCCC1 [cyclopentanone] + CCO",
    "test-readout": "refractive index",
    "recorded-number": 1.3696
  },
  {
    "molecule": "O=C1CCCC1 [cyclopentanone] + C1CCCCC1",
    "test-readout": "refractive index",
    "recorded-number": 1.4236
  },
  {
    "molecule": "O=C1CCCC1 [cyclopentanone] + CCCCCCO",
    "test-readout": "refractive index",
    "recorded-number": 1.4175
  },
  {
    "molecule": "O=C1CCCC1 [cyclopentanone] + CCCCCCCCCCO",
    "test-readout": "refractive index",
    "recorded-number": 1.4345
  },
  {
    "molecule": "O=C1CCCC1 [cyclopentanone] + CCCCCCCCO",
    "test-readout": "refractive index",
    "recorded-number": 1.4276
  },
  {
    "molecule": "O=C1CCCC1 [cyclopentanone] + CCCCO",
    "test-readout": "refractive index",
    "recorded-number": 1.4015
  }
]

* * *

# assay-method-text: relative permittivity at various frequencies (dimensionless); xn = mol fraction of the nth substance listed
# experimental-setup: 298.15 K; 101.3 kPa; Liquid; Frequency=0.01 MHz; Coaxial cylinder capacitor; x1 = 0.4
± gives the expanded uncertainty stated by the source.

[
  {
    "compound": "O=C1CCCC1 [cyclopentanone] + CCCCCCO",
    "relative permittivity": "11.51 ± 0.59"
  },
  {
    "compound": "O=C1CCCC1 [cyclopentanone] + CCCCO",
    "relative permittivity": "13.97 ± 0.64"
  },
  {
    "compound": "O=C1CCCC1 [cyclopentanone] + CCO",
    "relative permittivity": "17.78 ± 0.72"
  },
  {
    "compound": "O=C1CCCC1 [cyclopentanone] + CCCCCCCCO",
    "relative permittivity": "9.65 ± 0.54"
  },
  {
    "compound": "O=C1CCCC1 [cyclopentanone] + CCCCCCCCCCO",
    "relative permittivity": "8.43 ± 0.51"
  },
  {
    "compound": "O=C1CCCC1 [cyclopentanone] + C1CCCCC1",
    "relative permittivity": "5.51 ± 0.42"
  }
]

* * *

The entries below come with measured mass density values attached.
# experimental-setup: 298.15 K; 101.3 kPa; Liquid; Vibrating tube method

[
  {
    "smiles-structure": "CCCCCCCCCCO",
    "unit-descriptor": "kg/m3",
    "mass density": 826.71
  },
  {
    "smiles-structure": "CCCCO",
    "unit-descriptor": "kg/m3",
    "mass density": 805.92
  },
  {
    "smiles-structure": "CCO",
    "unit-descriptor": "kg/m3",
    "mass density": 785.26
  },
  {
    "smiles-structure": "CCCCCCCCO",
    "unit-descriptor": "kg/m3",
    "mass density": 821.98
  },
  {
    "smiles-structure": "CCCCCCO",
    "unit-descriptor": "kg/m3",
    "mass density": 815.99
  },
  {
    "smiles-structure": "O=C1CCCC1",
    "unit-descriptor": "kg/m3",
    "mass density": 944.31
  },
  {
    "smiles-structure": "C1CCCCC1",
    "unit-descriptor": "kg/m3",
    "mass density": 773.89
  }
]

* * *

# assay-method-text: xn = mol fraction of the nth substance listed
# experimental-setup: 298.15 K; 101.3 kPa; Liquid; Vibrating tube method; x1 = 0.3

[
  {
    "compound": "O=C1CCCC1 [cyclopentanone] + CCCCCCO",
    "mass density / kg/m3": 842.44
  },
  {
    "compound": "O=C1CCCC1 [cyclopentanone] + CCO",
    "mass density / kg/m3": 853.69
  },
  {
    "compound": "O=C1CCCC1 [cyclopentanone] + CCCCCCCCCCO",
    "mass density / kg/m3": 839.24
  },
  {
    "compound": "O=C1CCCC1 [cyclopentanone] + CCCCO",
    "mass density / kg/m3": 849.88
  },
  {
    "compound": "O=C1CCCC1 [cyclopentanone] + CCCCCCCCO",
    "mass density / kg/m3": 841.25
  }
]

* * *

# assay-method-text: relative permittivity at various frequencies (dimensionless); xn = mol fraction of the nth substance listed
# experimental-setup: 298.15 K; 101.3 kPa; Liquid; Frequency=0.01 MHz; Coaxial cylinder capacitor; x1 = 0.8
The entries below come with measured relative permittivity values attached.
test-readout: relative permittivity

[
  {
    "compound": "O=C1CCCC1 [cyclopentanone] + CCCCCCCCCCO",
    "test-readout": "relative permittivity",
    "recorded-number": 11.27
  },
  {
    "compound": "O=C1CCCC1 [cyclopentanone] + CCCCCCO",
    "test-readout": "relative permittivity",
    "recorded-number": 12.27
  },
  {
    "compound": "O=C1CCCC1 [cyclopentanone] + CCO",
    "test-readout": "relative permittivity",
    "recorded-number": 14.16
  },
  {
    "compound": "O=C1CCCC1 [cyclopentanone] + C1CCCCC1",
    "test-readout": "relative permittivity",
    "recorded-number": 10.45
  },
  {
    "compound": "O=C1CCCC1 [cyclopentanone] + CCCCO",
    "test-readout": "relative permittivity",
    "recorded-number": 13.04
  },
  {
    "compound": "O=C1CCCC1 [cyclopentanone] + CCCCCCCCO",
    "test-readout": "relative permittivity",
    "recorded-number": 11.69
  }
]
